# experiment_description: H69AR cell proliferation blockers – human, duplicate replicates, primary screen (AID 580);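 also: 100% = mean luminescence of untreated wells and 0% = no signal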
# measurement_parameters: H69AR lung tumor cells viability, ATP luminescence, 72 h; at 10 µM; stronger effect = lower value
Attribute: viability

{"columns": ["compound", "viability (%)"],
 "data": [
  ["CC(C)C(=O)N1CCN(CCN=Cc2c(O)n(C)c(=O)n(C)c2=O)CC1", 96.5],
  ["CCCCn1c(O)c(C(C)=Nc2cccc(C(=O)O)c2)c(=O)[nH]c1=O", 105],
  ["CCOCC(=O)NC1CCSC1=O (centres undefined)", 93.8],
  ["Cc1[nH]c2c(Cl)cccc2c1CCN", 13.2],
  ["CCN1c2nc3ccccn3c(=O)c2CC2(C(=O)N(C)C(=O)N(C)C2=O)C1C (centres undefined)", 96],
  ["CCOC(=O)C(O)(c1ccc(N(CC)C(=O)OC)cc1)C(F)(F)F (centres undefined)", 109],
  ["CCOc1ccc(Br)c(C2(O)CC(C)N(C)CC2C)c1 (centres undefined)", 96.7],
  ["O=C(c1cccs1)C1CN2CCC1CC2 (centres undefined)", 106],
  ["O=C(Cn1ncc2c3ccccc3n(Cc3ccc(F)cc3)c2c1=O)N1CCC2(CC1)OCCO2", 89.2],
  ["CCC(=NCCCN1CCOCC1)c1c(O)n(Cc2ccccc2)c(=O)[nH]c1=O", 89.2],
  ["COc1ccccc1N1CCN(Cc2c(F)cccc2F)CC1", 94.2],
  ["Cc1ccc(CS(=O)(=O)CCC(=O)N2CCC3(CC2)OCCO3)cc1", 97.7],
  ["COc1ccc(CN2CCN(C(=O)Cc3ccccc3)CC2)c(OC)c1", 97.3],
  ["COC(=O)c1ccccc1-n1c(C)nc2ccccc2c1=O", 98.5],
  ["c1ccc(C2NCc3ccccc3-n3cccc32)cc1 (centres undefined)", 84.2],
  ["O=c1[nH]c(=O)n(CCc2ccc(F)cc2)c(O)c1C=NCCCn1ccnc1", 102],
  ["CN1CC[C@@]23CCCC[C@@H]2[C@@H]1Cc1ccc(O)cc13", 95.8],
  ["c1ccc2c(c1)OCC(C1=NCCN1)O2 (centres undefined)", 81.4],
  ["CCOC(=O)C1=C(N)OC(C)=C(C(=O)OCCOC)C12C(=O)Nc1ccccc12 (centres undefined)", 98.2],
  ["O=C1CC(N2CCC(n3c(=O)[nH]c4ccccc43)CC2)C(=O)N1c1ccc(F)cc1 (centres undefined)", 103],
  ["CC(CCc1ccccc1)NC(C)C(O)c1ccc(O)cc1 (centres undefined)", 97.2],
  ["COc1ccc(C(=O)N2CCCC2=O)cc1", 103],
  ["CC#CP(=O)(OCC)C(O)(c1ccccc1)C(F)(F)F (centres undefined)", 96.9],
  ["COc1ccc(OC)c([C@@H](O)[C@H](C)NC(C)(C)C)c1", 97.5]
]}
